The reported measurements were obtained from PubChem BioAssay (NCI).

test system: NCI-H226 lung; test: NCI tumour cell line growth inhibition, 48 h
readout: TGI (µM)
Give the value in µM but do not write µM after it.

Solved entries:
[
  {
    "compound": "CCN(Cc1ccc(F)cc1)c1ccc(CO)c(Br)c1",
    "units.of.measure": "µM",
    "value.reported": 0.231
  },
  {
    "compound": "COC(=O)/C=C\\C(C#N)(C#N)N=Cc1cc(Br)cs1",
    "units.of.measure": "µM",
    "value.reported": 35.3
  }
]

# TGI of "COc1ccc2c(c1)CCCN2CCCCCCCCCCN(CCC(C)C)CCC(C)C" = 31.3

Form: compound = "COC(=O)NC(C(F)(F)F)(C(F)(F)F)P1(=O)OCCCO1" ; TGI = 98.7

----------
test system: COLO 205 colon; experiment: NCI tumour cell line growth inhibition, 48 h
# TGI values compiled below
// note: answer is a bare numeric in µM

Below, each entry is followed by its recorded TGI result.
[
  {
    "molecule": "FC(F)(F)c1ccc2c(c1)nc(-c1ccc(Cl)cc1)n2CC1CCCN2CCCCC12 (stereo unspecified)",
    "TGI [µM]": 24.4
  },
  {
    "molecule": "CC1(Br)Cc2ccccc2C1=O (stereo unspecified)",
    "TGI [µM]": 17.5
  },
  {
    "molecule": "CCOC(=O)c1c2c(n(Cc3ccccc3)c1C)C(=O)C(=O)c1ccccc1-2",
    "TGI [µM]": 1.69
  },
  {
    "molecule": "C#Cc1nc(Nc2cc(C)[nH]n2)c2ccccc2n1",
    "TGI [µM]": 0.674
  }
]

Param item: "COC(=O)NC(C(F)(F)F)(C(F)(F)F)P1(=O)OCCCO1" ; param system: COLO 205 colon; output TGI: 69.9

Field TGI (COLO 205 colon), entry "C[C@H]1CN[C@@H]2[C@@H](C)[C@H]3[C@@H](C[C@H]4[C@@H]5CC[C@H]6C[C@@H](N)CC[C@]6(C)[C@H]5CC[C@]34C)O[C@@]2(O)C1" : 7.69

The reported TGI value, COLO 205 colon, for "COc1ccc(-c2cc(/C=C/C(=O)c3ccc(OC)c(OC)c3)[nH]n2)cc1" reads 3.3

Form field TGI for item "COc1ccc(/C(=C\C=C(C#N)C#N)Sc2nc3ccccc3s2)cc1" on COLO 205 colon: 17.4

GET /values?item= "CN(C)CCSc1cc(-c2ccccc2)c2ccccc2n1" &system= COLO 205 colon returns TGI: 4.85

# TGI measured on COLO 205 colon for item "O=C1CCC/C=C\C[C@H]2C=CC(=O)/C2=C/C[C@H](C/C=C\CC(F)(F)F)O1" = 0.726

----------
system: M19-MEL melanoma; assay: NCI tumour cell line growth inhibition, 48 h
Attribute: TGI

[
  {
    "molecule": "C[Si](C)(C)/C(I)=C/CO",
    "assay.target": "M19-MEL melanoma",
    "TGI": "53.1 µM"
  },
  {
    "molecule": "CC1(C)CC(=O)CC(=Nc2ccc([N+](=O)[O-])cc2)C1",
    "assay.target": "M19-MEL melanoma",
    "TGI": "> 100 µM"
  }
]

Next up:
TGI measured on COc1ccc(C(C#N)NNC(=O)Cc2ccccc2)cc1OC (stereo not drawn) = > 100 µM
